The measurements presented in this section are drawn from PubChem BioAssay (NCATS).

System: JCK
assay overview: qHTS profiling for inhibitors of Plasmodium falciparum proliferation (AID 504749); further: nearly all actives have a fitted effect of over 60% in size
assay conditions: P. falciparum in erythrocytes, SYBR Green DNA, 72 h; series mostly up to 28.7 µM
Results filed as inconclusive are left out. Calls of active or inactive are those of the source. The call rests on the fitted dose curve; in most records, active means well fitted inhibition curve with a large enough effect; inconclusive means small, poorly fitted or top-dose-only effect; inactive means flat fitted curve, though single readings scatter.
I would appreciate it if you answered using one of these outcomes: Yes for active, No for inactive

compound | tested target | category label
O=C(O)CO.[NH2-].[NH2-].[Pt+2] | JCK | No
CN1c2cc(O)c(N=NC(N)=O)cc2CC1S(=O)(=O)O (configuration not stated) | JCK | No

Recorded test call requested for CC[C@H]1CN2CCc3cc(OC)c(OC)cc3[C@H]2C[C@@H]1C[C@@H]1NCCc2cc(OC)c(OC)cc21 Yes

Recorded test call requested for CC=CC1=C(C(=O)O)N2C(=O)[C@H](NC(=O)[C@H](N)c3ccc(O)cc3)[C@@H]2SC1 No

Recorded test call requested for O=c1[nH]c(=O)n(C2CCCO2)cc1F (configuration not stated) No

Recorded test call requested for COC(=O)C1=C(C)NC(C)=C(C(=O)OCCN2CCN(C(c3ccccc3)c3ccccc3)CC2)C1c1cccc([N+](=O)[O-])c1 (configuration not stated) Yes

Recorded test call requested for CC(C)(C)NC(=O)[C@H]1CN(Cc2cccnc2)CCN1C[C@@H](O)C[C@@H](Cc1ccccc1)C(=O)N[C@H]1c2ccccc2C[C@H]1O No

----------
Tested on: Tov112D
assay overview: Primary qHTS to identify gynecologic anti-cancer compounds using libraries of approved drugs and bioactive compounds (AID 1345084); further: nearly all actives have a fitted effect of over 55% in size
assay conditions: Gynecologic cancer cell panel viability, ATPlite luminescence, 48 h; series mostly up to 57.5 µM
Inconclusive results are not listed. Active and inactive are the calls of the source. Calls follow the shape of the dose curve; as a rule, active = well fitted cell-killing curve with a large enough effect; inconclusive = small, poorly fitted or top-dose-only effect, or effect the other way; inactive = flat fitted curve, though single readings scatter.
I would appreciate it if you answered using one of these outcomes: Yes for active, No for inactive

Here's what some known entries look like.
smiles data | category label
Nc1cc(C(F)(F)F)c(-c2cc(N3CCOCC3)nc(N3CCOCC3)n2)cn1 | Yes
NCC(=O)Nc1ccc(-n2nc(C(F)(F)F)cc2-c2ccc3c(ccc4ccccc43)c2)cc1 | No
CNC(=O)c1nn(C)c2c1C(C)(C)Cc1cnc(Nc3ccc(N4CCN(C)CC4)cc3)nc1-2 | Yes
CN1CCC(CNc2ccc3ncc(-c4cccc(OC(F)(F)F)c4)n3n2)CC1 | No

Would you kindly look at the next entry?
Recorded test call requested for CCCCCCCCCC(=O)N[C@@H](Cc1c[nH]c2ccccc12)C(=O)N[C@H](CC(N)=O)C(=O)N[C@@H](CC(=O)O)C(=O)N[C@@H]1C(=O)NCC(=O)N[C@@H](CCCN)C(=O)N[C@@H](CC(=O)O)C(=O)N[C@H](C)C(=O)N[C@@H](CC(=O)O)C(=O)NCC(=O)N[C@H](CO)C(=O)N[C@@H]([C@@H](C)CC(=O)O)C(=O)N[C@@H](CC(=O)c2ccccc2N)C(=O)O[C@@H]1C No

----------
Potency for assorted compounds
assay overview: qHTS for identification of novel therapeutic agents for treatment of microphthalmiaassociated transcription factor (MiT) renal cell carcinoma (RCC) (AID 1963991); further: potency means the concentration at half of the fitted maximal effect
assay conditions: TFE3-RCC UOK109 viability, CellTiter-Glo, 48 h; active = Z-AUC below -0.8 in all three lines
Results filed as inconclusive are left out. Active and inactive are the calls of the source.

compound | Potency
COc1c(OCCCN2CCOCC2)ccc2c3n(c(=NC(=O)c4cnc(N)nc4)nc12)CCN3 | 40.7 nM (active)
C=CCn1c(=O)c2cnc(Nc3ccc(N4CCN(C)CC4)cc3)nc2n1-c1cccc(C(C)(C)O)n1 | 235 nM (active)

# compound CC[C@@]1(O)C(=O)OCc2c1cc1n(c2=O)Cc2cc3cc(O)ccc3nc2-1 ; its Potency = 1480 nM (active)

# compound Cc1c(NC(=O)OC[C@@H]2COCCN2)cn2ncnc(Nc3ccc4c(cnn4Cc4cccc(F)c4)c3)c12 ; its Potency = 118 nM (active)

# compound C=CC(=O)Nc1cc2c(Nc3ccc(F)c(Cl)c3)ncnc2cc1C#CC(C)(C)N1CCN(C)CC1 ; its Potency = 14800 nM (active)

# compound CCn1nnc2c(N3CCOCC3)nc(-c3ccc(NC(=O)Nc4ccc(C(=O)N5CCN(C)CC5)cc4)cc3)nc21 ; its Potency = 526 nM (active)

# compound CC(C)(O)c1cc2nc(-c3cnc(N)nc3)nc(N3CCOCC3)c2s1 ; its Potency = 33.2 nM (active)

# compound CC(C)C[C@H](NC(=O)CNC(=O)c1cc(Cl)ccc1Cl)B(O)O ; its Potency = 372 nM (active)

# compound Cc1nc2cnc3ccc(C#Cc4cccnc4)cc3c2n1-c1ccc(C(C)(C)C#N)cc1 ; its Potency = 118 nM (active)

# compound CC(C)c1cc(-c2n[nH]c(=O)n2-c2ccc3c(ccn3C)c2)c(O)cc1O ; its Potency = 74.3 nM (active)
